Collected apparent KD of K4 kissing-loop reporter values appear next to each entry.
Test system: K4 kissing-loop RNA reporter
Assay: apparent KD of K4 kissing-loop reporter; higher = weaker reporter binding
Conditions: Eterna round: R107; input ligand: arginine 13.2 mM
# unit: nM | format: bare number

Consider the following illustrative entries.
> print(dat)
                        biopolymer.sequence  measured
1  CGGAGUCGCGGAAGGAGCGCUCGAUAGACAAGUUGAUCGUGCCGUGGUCGAGUGAUGUUCGAGCAGGUAGGUCGCCGUCGGUCCC [Cexeatedma]       204
2  GCCGUACGCAUGGAUACCAGCCGACAUGAUAUUUAGCUGGUGUCGUAGUGAUGUUACGAAGGCCCUUGGCAGCCAUGCGUACGGC      72.7

Now consider the entry below.
Return reported apparent KD of K4 kissing-loop reporter. Input sequence: AAGCAGUCAGGAUCGAAGAUCCUGCAAAACCGAGGACCGGUACGGCCGCCACUCGGAGUGAUGUUCCGAAGACUGCAAAAUAAAA [#SwitchBubble 6]
152

###

System: K4 kissing-loop RNA reporter
Test: apparent KD of K4 kissing-loop reporter; higher = weaker reporter binding
Conditions: Eterna round: R107; input ligand: FMN 200 uM
Cut-off 200 nM on apparent KD of K4 kissing-loop reporter, inclusive. At or above means criterion met; below means criterion not met.

Example cases with answers are listed next.
Biopolymer sequence	Target under test	Category
AACACUCAGAGAGUGAUGUUCUCUAAUAAACGAGGACCGGUACGGCCGCCACUCGAAUAAGAGUGAGUCCUACGAAAAGUAGGAC [Omei inspired 5 #OpenEnded]	K4 kissing-loop RNA reporter	criterion met
UUUGGUUUCUCGGCCGCCACUCGUUGGUUAUGGGCUUCAGGGAUAUAGUGAUGUUAUGUAUAGAAGAGGACCGGGAGAAGGUUUU [ExTryptoB.Du]	K4 kissing-loop RNA reporter	criterion met
CAAGCUCUCCAAGGAUAUGAUAUCGACCCGUCUUAGUGAUGUUAAGGCUGUAGAAAUUCACAUUGAUCAGAAGGUGGUACCCUCC [theeternabot_sameState_KL_FMN_B_8]	K4 kissing-loop RNA reporter	criterion met
GAGGUAUGCGCAGUGAUGUUGCGACGAGAUACCAGUCGUUCUGUCGACCCUUGGCAGCUCCCACCAGACGUACGAGUUUGUGUUG [theeternabot_sameState_KL_Theo_A_10]	K4 kissing-loop RNA reporter	criterion not met
GGUGCUGUCUGUGCCGCCCUCCUCGUCCCUCGAGGACCGGUACGGCCGCCACUCGAGUGAUGUUCGGGUAGCCAUCCCUGCCAGC [BDazzled - #20 Exc. Tryptophan A]	K4 kissing-loop RNA reporter	criterion met

Is apparent KD of K4 kissing-loop reporter for UGUCAUUGGUCUGAUACCAGCUUGAUCGGAAACGAUCUGCUGGAGUGAUGUUCCAAGUAAAGCCCUUGGCAGCAGACCGAUGACU [TheoBS 8 #SwitchBubble #StaticStem] at or above 200 nM?
criterion not met

Is apparent KD of K4 kissing-loop reporter for AAGCAGUCACUCGAAGCCAUCGAAGAUGGGCGAGGACCGGUACGGCCGCCACUCGGAGUGAUGUUCCGAAGACUGCAAAAUAAAA at or above 200 nM?
criterion met

Is apparent KD of K4 kissing-loop reporter for CGCGUACAGUGUUCUACGGCCGAGAGUGAUACCAGCCGUAUUUGUGGCCCUUGGCAGCGCAGAUGCAGUGAUGUUGCAUACUUGG [Same State Theophylline A GF 21] at or above 200 nM?
criterion not met

Is apparent KD of K4 kissing-loop reporter for CCGCUACCCUCAGGAUAUUAAUAUGGAGUGAUGUUCUAUGUCCGAUGGCGGAAACGCCAUCGGGAAUAAGAAGGGAGGGUAGCGG at or above 200 nM?
criterion not met

Is apparent KD of K4 kissing-loop reporter for GAAAGAAAGUAUGAUACCAGACACCCGAGUGAUGUUCGGAGCAGAGUGAUGUUCUUUUAAGUCCCUUGGCAGCAUAAAAGAAAAG [whbob_SS_Theo_B_sa83] at or above 200 nM?
criterion not met

Is apparent KD of K4 kissing-loop reporter for UAAGAGGACCACUGCGAGAGUCCUCGAAUACGAGGACCGGUACGGCCGCCACUCGAUAAUUUGUAGUGAUGUUGCAAGUAAGAAU [BrourdMod 7 - Jieux - Same State Tryptophan A] at or above 200 nM?
criterion not met

###

Tested on: K4 kissing-loop RNA reporter;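 further: bound reporter read as fluorescence of individual clusters on recovered sequencing chips by microscopy, with normalized cluster intensities fitted with a binding model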
Experiment: apparent KD of K4 kissing-loop reporter; higher = weaker reporter binding
Conditions: Eterna round: R107; input ligand: arginine 13.2 mM
Recorded metric: apparent KD of K4 kissing-loop reporter (nM)
# unit: nM | format: bare number

Consider the following illustrative entries.
> print(dat)
                        biopolymer.sequence  measured
1  GUUUGCCGGUUCCGGAGUGAUGUUCCGGAUACCAGCAACUUCCUUUGCCCUUGGCAGCCGUAGCUAUACCGGAUGGCAGCUUCAG [Arrexean]      82.7
2  UGUGUACCGGGAAGGAGCGUGAAUGAGAAUGGAUAUAGUGAUGUUAUGUAUACGAACGAAUCGCAGGUAGGUCGCCCGGAUCCCU [SSArgB.Z]       320
3  UUAAUUAAGACGGCCGCCACUGAAUUAGAGUGAUGUUCUAAAAUUACUAAAUUAAAUUUAUUCAACAGGACCGGGUCAAUUAUUA [JR_SSTryptoB_Sub009]       435
4  UCCUUUGUUGCCAGUGAUGUUGGACAGGAAGGAGCGGGCAUAAGCCCAGGUAGGUCGCCUGUCAACUUUCUUAUAGCCCGAAGGU [KL-XArg-A19]       352
5  UAUUAAUUGUCAGGAUAUCGUAAACGAGUGAUGUUCGUAUAUCGACGAUAGUCGAUUCUAUCUAAACGAGAAGGGACAUUAUUUA [JR_SSFMNB_Sub008]       454

Now consider the entry below.
Return reported apparent KD of K4 kissing-loop reporter. Input sequence: GUAUAUCGAGUGAUGUUCGAAUGCUCCGAAGGAGCGCGGAUAAUCGCAGGUAGGUCGCGGAGCAGUUGCUGAGGAAGCUCAGUAU [Arg A SS t11]
401

###

Tested on: MS2 coat protein
Assay: apparent KD of MS2 coat protein; higher = weaker reporter binding
Details: Eterna round: R107; input ligand: arginine 13.2 mM
Cut-off 40 nM on apparent KD of MS2 coat protein, inclusive. At or above means T; below means F.

Biopolymer sequence	Target under test	Category
AGUGUUAUAACUGAUACCAGACUUUUGCUUAUACAUGAGGAUCACCCAUGUAAAAUGGUUGUCCCUUGGCAGCAGAAGUUACACA [JR_SSTheophyB_Sub008]	MS2 coat protein	T
CCUUUUAUUAAUGAUACCAGCGUAUUAAGCAUCACCUUGGACAUGAGGAUCACCCAUGUACGCCCUUGGCAGCAUACCACUGGGU [theeternabot_exclusion_MS2_Theo_B_5]	MS2 coat protein	F
UCGCCCGGGUCGGCCGCCACUGCGGUGAUGUGACAUGAGGAUCACCCAUGUUGUCAUGUGGCACAUAGGACCGGGACCCGGGCGA [Exclusion - Tryptophan B Attempt #4 (HarryS)]	MS2 coat protein	F
GACAUGAGGAUCACCCAUGUACCGCGAGAAGGAGCGCGGAUAAACGCAGGUAGGUCGCUCGUGGGCUUGUAUUCAAUCGUAAGCU [Anlaaranan]	MS2 coat protein	T
UGACAUGAGGAUCACCCAUGUUUAGAUGAACGAGGACCGGUACGGCCGCCACUCGAUAAGUGGAAAGAGCGAGGGAUCGCAUGCU [Same State Trp A GF5]	MS2 coat protein	F

Consider the additional sequence presented here.
Is apparent KD of MS2 coat protein for CCGGCCAAUUAGAAAUUAAUUGGCCGGAAACGAGGACCGGUACGGCCGCCACUCGUGGCGGGAGAAACAUGAGGAUCACCCAUGU at or above 40 nM?
F

###

System: MS2 coat protein
Experiment: apparent KD of MS2 coat protein; designed switch direction (-1 OFF switch, 1 ON switch): -1; higher = weaker reporter binding
Settings: input ligand: microRNA oligo, concentration not stated
Recorded metric: apparent KD of MS2 coat protein (µM)
# unit: µM | format: bare number

Consider the following illustrative entries.
Biopolymer sequence	Unit label	apparent KD of MS2 coat protein
CUAAAUCAUGUAGGAUAUGCGUGGCAAAGCUAUGCAGAAGGACAUGAGGAUCACCCAUGUCAUUCCGUCUGGGAACAGACGGGA [Mat - Exclusion NG 1 - Mod of JL - D52] (Eterna round: R96, puzzle: Exclusion NG 1)	µM	0.0175
ACAUGAGGAUCACCCAUGUUUGGCUGGUUCUCUCCGGCUGUCGAGGAUAUAGUCCGGUAUCCGCGCUAGAAGGUGAGGGCUGGC [Aenatbe mod 6] (Eterna round: R96, puzzle: Exclusion NG 3)	µM	0.0123
UAAGAUUAUUGAGGAUAUGGUAAUUUUUAUUAACCAGAAGGCAAACUCAACAUGAGGAUCACCCAUGUAUAAAGGGUAUUAGUU [JR_ExcNG1_Sub096] (Eterna round: R96, puzzle: Exclusion NG 1)	µM	0.0512
ACAUGUUGCGCAGGAUAUGGGACACAUGAGGAUCACCCAUGUGGUUUCAUGUCUAACCAAGCGUCCCAGAAGGGCGUGAACAUG [Ex NG2 #30] (Eterna round: R96, puzzle: Exclusion NG 2)	µM	0.0208
AGCUGUGGCCGAGGAUAUACACAUGAGGAUCACCCAUGUAGGCGCGGAUACGCGCUAAAAUAAAUGUAGAAGGCGGUCUCAGCA [Eli eng2 - 055] (Eterna round: R96, puzzle: Exclusion NG 2)	µM	0.005

Return reported apparent KD of MS2 coat protein. Input sequence: UUUUUAUAUGAAGGAUAUACUUAACAUGAGGAUCACCCAUGUGGUGUUGUGAGUGAGUGAGUUUAGUAGAAGGUCAAUUAGUUU [JMF's solution 12] (Eterna round: R96, puzzle: Exclusion NG 2)
0.157
